Each entry below carries its measured MIC, system: Staphylococcus aureus NCTC10649M.
Value Kind: MIC (µg/mL)

- CC[C@H]1OC(=O)[C@H](C)[C@@H](O[C@H]2C[C@@](C)(OC)[C@@H](O)[C@H](C)O2)[C@H](C)[C@@H](O[C@@H]2O[C@H](C)C[C@H](N(C)C)[C@H]2O)[C@@]2(C)C[C@@H](C)C(=O)[C@H](C)[C@H]3N(CCC=CCO2)C(=O)O[C@]13C: 0.2
- CC[C@H]1OC(=O)[C@H](C)[C@@H](O[C@H]2C[C@@](C)(OC)[C@@H](O)[C@H](C)O2)[C@H](C)[C@@H](O[C@@H]2O[C@H](C)C[C@H](N(C)C)[C@H]2O)[C@](C)(O)C[C@@H](C)C(=O)[C@H](C)[C@@H](O)[C@]1(C)O [Ery. A, Erythromycin A, reference compound]: 0.39
- CC[C@H]1OC(=O)[C@H](C)[C@@H](O[C@H]2C[C@@](C)(OC)[C@@H](O)[C@H](C)O2)[C@H](C)[C@@H](O[C@@H]2O[C@H](C)C[C@H](N(C)C)[C@H]2O)[C@@]2(C)C[C@@H](C)C(=O)[C@H](C)[C@H]3N(CC(=O)CC=CCO2)C(=O)O[C@]13C: 3.1
- CC[C@H]1OC(=O)[C@H](C)[C@@H](O[C@H]2C[C@@](C)(OC)[C@@H](OC(C)=O)[C@H](C)O2)[C@H](C)[C@@H](O[C@@H]2O[C@H](C)C[C@H](N(C)C)[C@H]2O)[C@@]2(C)C[C@@H](C)C(=O)[C@H](C)[C@H]3N(CCNCc4cccc(c4)C=CCO2)C(=O)O[C@]13C: 6.2
- CC[C@H]1OC(=O)[C@H](C)C(=O)[C@H](C)[C@@H](O[C@@H]2O[C@H](C)C[C@H](N(C)C)[C@H]2O)[C@@]2(C)C[C@@H](C)C(=O)[C@H](C)[C@H]3N(CCC=CCO2)C(=O)O[C@]13C: 0.78
- CC[C@H]1OC(=O)[C@H](C)C(=O)[C@H](C)[C@@H](O[C@@H]2O[C@H](C)C[C@H](N(C)C)[C@H]2O)[C@@]2(C)C[C@@H](C)C(=O)[C@H](C)[C@H]3N(CCOCc4ccccc4C=CCO2)C(=O)O[C@]13C: 0.78
- CC[C@H]1OC(=O)[C@H](C)C(=O)[C@H](C)[C@@H](O[C@@H]2O[C@H](C)C[C@H](N(C)C)[C@H]2O)[C@@]2(C)C[C@@H](C)C(=O)[C@H](C)[C@H]3N(CCNC(=O)c4ccccc4C=CCO2)C(=O)O[C@]13C: 3.1
- CC[C@H]1OC(=O)[C@H](C)C(=O)[C@H](C)[C@@H](O[C@@H]2O[C@H](C)C[C@H](N(C)C)[C@H]2O)[C@@]2(C)C[C@@H](C)C(=O)[C@H](C)[C@H]3N(CC=CCO2)C(=O)O[C@]13C: 0.39
